- SYSTEM_TESTED: human Cav2.2 (composed of the subunits α1, β3 and α2δ) (Homo sapiens)
- Sequence (Q00975 whole entry): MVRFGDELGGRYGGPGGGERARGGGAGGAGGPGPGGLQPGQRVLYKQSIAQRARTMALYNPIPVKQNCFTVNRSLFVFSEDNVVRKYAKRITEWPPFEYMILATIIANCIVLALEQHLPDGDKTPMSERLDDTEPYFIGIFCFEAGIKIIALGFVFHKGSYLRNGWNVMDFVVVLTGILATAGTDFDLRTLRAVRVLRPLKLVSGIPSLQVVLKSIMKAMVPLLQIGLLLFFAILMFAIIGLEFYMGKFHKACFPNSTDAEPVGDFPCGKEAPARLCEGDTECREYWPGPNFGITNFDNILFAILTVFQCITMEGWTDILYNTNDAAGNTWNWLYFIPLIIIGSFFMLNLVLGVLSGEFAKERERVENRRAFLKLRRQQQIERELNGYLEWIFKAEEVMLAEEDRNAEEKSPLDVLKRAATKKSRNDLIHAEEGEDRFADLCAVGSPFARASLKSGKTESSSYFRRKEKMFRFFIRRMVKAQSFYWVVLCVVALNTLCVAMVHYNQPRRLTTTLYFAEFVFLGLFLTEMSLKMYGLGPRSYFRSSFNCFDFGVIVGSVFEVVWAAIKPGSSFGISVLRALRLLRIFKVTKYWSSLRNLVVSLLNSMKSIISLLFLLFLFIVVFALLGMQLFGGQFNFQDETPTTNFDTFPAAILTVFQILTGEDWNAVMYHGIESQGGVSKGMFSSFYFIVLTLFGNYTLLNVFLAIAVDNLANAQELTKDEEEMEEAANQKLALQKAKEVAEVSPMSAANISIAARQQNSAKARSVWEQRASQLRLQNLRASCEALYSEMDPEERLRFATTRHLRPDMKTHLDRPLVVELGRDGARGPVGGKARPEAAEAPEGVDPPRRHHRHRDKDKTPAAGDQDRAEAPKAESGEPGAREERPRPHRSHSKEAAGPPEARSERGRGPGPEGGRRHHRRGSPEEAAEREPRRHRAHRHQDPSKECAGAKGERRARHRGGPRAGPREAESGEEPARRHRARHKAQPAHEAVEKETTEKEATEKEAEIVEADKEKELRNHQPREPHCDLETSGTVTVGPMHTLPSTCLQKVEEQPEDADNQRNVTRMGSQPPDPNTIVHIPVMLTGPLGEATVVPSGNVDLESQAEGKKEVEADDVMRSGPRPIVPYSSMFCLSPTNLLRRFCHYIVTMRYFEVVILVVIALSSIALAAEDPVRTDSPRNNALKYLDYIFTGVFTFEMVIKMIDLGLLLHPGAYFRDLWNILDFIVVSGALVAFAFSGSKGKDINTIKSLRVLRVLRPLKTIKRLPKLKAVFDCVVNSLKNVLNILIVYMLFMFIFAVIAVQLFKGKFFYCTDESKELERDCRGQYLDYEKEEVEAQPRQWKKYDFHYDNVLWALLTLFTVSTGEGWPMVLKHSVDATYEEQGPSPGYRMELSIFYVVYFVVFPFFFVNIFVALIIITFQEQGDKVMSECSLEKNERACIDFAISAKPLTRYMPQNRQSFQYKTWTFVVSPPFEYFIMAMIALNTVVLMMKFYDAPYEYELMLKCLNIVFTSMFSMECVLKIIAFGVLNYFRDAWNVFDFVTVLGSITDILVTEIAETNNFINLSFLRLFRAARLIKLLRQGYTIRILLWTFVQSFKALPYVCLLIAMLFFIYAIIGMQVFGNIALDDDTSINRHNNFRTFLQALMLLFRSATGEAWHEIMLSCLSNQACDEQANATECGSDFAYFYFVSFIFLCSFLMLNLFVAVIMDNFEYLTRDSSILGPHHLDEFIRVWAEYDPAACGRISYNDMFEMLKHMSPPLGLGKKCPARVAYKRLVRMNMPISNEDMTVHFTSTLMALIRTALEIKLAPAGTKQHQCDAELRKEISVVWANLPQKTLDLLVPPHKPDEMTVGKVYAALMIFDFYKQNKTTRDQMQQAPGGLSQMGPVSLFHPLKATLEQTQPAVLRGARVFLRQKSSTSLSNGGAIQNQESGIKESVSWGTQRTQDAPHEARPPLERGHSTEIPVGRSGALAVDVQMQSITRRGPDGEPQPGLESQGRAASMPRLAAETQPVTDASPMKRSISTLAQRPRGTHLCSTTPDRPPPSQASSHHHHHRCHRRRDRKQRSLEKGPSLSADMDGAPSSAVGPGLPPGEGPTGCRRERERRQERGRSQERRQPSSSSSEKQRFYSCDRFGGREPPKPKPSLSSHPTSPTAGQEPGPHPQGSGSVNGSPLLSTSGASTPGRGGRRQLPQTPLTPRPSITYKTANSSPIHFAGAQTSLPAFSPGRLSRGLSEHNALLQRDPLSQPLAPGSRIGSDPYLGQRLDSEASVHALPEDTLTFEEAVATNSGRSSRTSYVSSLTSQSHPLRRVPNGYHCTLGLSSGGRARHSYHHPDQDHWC
- Sequence (P54284 whole entry partner): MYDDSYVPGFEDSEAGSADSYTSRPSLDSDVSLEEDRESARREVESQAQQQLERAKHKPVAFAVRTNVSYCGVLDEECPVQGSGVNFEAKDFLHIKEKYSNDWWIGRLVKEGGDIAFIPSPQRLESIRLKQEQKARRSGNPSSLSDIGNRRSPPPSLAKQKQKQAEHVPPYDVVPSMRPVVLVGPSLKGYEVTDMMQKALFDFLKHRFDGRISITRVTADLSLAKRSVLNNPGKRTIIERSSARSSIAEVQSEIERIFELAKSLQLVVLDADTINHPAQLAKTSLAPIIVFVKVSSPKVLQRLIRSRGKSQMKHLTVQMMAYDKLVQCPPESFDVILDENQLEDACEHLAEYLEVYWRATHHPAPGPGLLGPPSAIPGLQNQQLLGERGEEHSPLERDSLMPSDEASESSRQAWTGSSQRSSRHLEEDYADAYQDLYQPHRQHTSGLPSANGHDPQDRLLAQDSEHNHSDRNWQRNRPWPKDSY
- Sequence (P54289 25-946 partner limits assumed): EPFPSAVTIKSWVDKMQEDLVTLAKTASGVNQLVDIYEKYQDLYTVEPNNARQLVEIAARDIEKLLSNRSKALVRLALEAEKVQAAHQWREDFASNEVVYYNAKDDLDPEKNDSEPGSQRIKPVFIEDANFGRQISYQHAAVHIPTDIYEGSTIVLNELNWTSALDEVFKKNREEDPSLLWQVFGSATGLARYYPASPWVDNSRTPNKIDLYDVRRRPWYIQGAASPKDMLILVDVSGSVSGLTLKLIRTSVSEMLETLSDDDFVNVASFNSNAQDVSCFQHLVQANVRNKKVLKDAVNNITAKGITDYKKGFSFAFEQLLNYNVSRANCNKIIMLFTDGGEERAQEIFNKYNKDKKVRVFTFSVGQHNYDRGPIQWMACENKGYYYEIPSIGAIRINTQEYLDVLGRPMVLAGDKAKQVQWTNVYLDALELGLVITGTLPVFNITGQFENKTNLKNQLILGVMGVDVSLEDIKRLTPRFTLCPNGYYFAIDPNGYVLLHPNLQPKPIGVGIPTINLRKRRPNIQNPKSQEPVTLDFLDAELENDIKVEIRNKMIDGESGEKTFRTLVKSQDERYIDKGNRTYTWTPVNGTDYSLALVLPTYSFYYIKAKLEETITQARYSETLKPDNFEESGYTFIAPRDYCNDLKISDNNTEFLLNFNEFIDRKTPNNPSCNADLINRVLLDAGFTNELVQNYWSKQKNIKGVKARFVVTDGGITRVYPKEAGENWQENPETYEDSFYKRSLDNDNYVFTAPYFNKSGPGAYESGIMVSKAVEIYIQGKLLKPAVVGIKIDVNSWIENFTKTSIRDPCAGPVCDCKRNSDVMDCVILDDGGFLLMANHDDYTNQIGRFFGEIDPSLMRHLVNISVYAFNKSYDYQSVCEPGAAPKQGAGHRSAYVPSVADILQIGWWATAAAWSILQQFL
- Sequence (P54289 947-1103 partner limits assumed): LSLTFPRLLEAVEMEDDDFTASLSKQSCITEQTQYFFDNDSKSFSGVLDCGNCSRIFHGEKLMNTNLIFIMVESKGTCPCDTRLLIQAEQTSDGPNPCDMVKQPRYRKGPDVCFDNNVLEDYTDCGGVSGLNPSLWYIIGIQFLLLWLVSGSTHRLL
- EXPERIMENT_DESCRIPTION: FLIPR assay (TSA201 cells stably transfected with human Cav2.2 and human Kir2.3, FLUO-4 Ca2+ signal, KCl depolarization)
- CONDITION_DESCRIPTION: 70 mM KCl depolarization, average value
RECORDED_METRIC: IC50 (µM)

> print(dat)
                                   compound  recorded.measurement
1  CC(C)(C)C(=O)N(CCc1csc(N2CCOCC2)n1)c1ccc(F)cc1                   5.9
2  CC(C)(C)C(=O)N(Cc1csc(-c2cccc(F)c2)n1)c1ccc(F)cc1                   5.3
3  CN1CCN(c2ccc(CN(C(=O)C3CCCCC3)c3ccc(F)cc3)cn2)CC1                   9.5

1. CC(C)(C)C(=O)N(Cc1csc(NC2CCCCC2)n1)c1ccc(F)cc1
2. CNc1nc(CN(C(=O)C(C)(C)C)c2ccc(F)cc2)cs1
3. CC(C)(C)C(=O)N(Cc1csc(N2CCN(c3ccccc3)CC2)n1)c1ccc(F)cc1
4. CC(=O)N(Cc1ccc(N2CCCC(O)C2)nc1)c1ccc(F)cc1 (stereo not drawn)
5. CCN(CC)c1ccc(CN(C(C)=O)c2ccc(F)cc2)cn1
Rank order required: IC50, descending. Kindly provide the labels arranged according to the requested ordering.
4, 5, 1, 2, 3
